# Test system: MS2 coat protein
# experiment: apparent KD of MS2 coat protein; designed switch direction (-1 OFF switch, 1 ON switch): -1; higher = weaker reporter binding
# test.conditions: Eterna round: R95; input ligand: none
Binary classification by apparent KD of MS2 coat protein, with 90 nM as an inclusive lower bound for condition met; all other cases are condition not met.

1) UUACUAUGUCGCCUAAUAGCUUUUUGCUCGUCUUAUAUUACAUGAGGAUCACCCAUGUAGAUCAUGUGGCGUGACCU [JL ViennaUCT Maridi mod 4] (puzzle: Sensor v3, turn-off variant 2) = condition met
2) UAAUUAAGUGUGAGGAUAUGCUGGUCCUUGGAUCAGCAGAAGGCACAUGAGGAUCACCCAUGUAAUAUAUAUAU [Mat - Exclusion 4 - JL Mod - D53] (puzzle: Brourd's mod of Exclusion 4) = condition met
3) AGUACUAACACGAAAGUGUUAGUACCAUAAGCUUGUGAAACAUGAGGAUCACCCAUGUCCUCAUAAGCUCGUCUUAU [salish99_TOv2_r3_041] (puzzle: Sensor v3, turn-off variant 2) = condition not met
4) GAGACACAUGAGGAUCACCCAUGUGAGGAUAUGCGAAGGACCAAAUUAAGAAUUAAAGGCAGAAGGCACAUAAA [Exclusion 1 V4] (puzzle: Exclusion 1) = condition not met

q: Hi team, for AGUACUAACACGAAAGUGUUAGUACAAUAAGCUUGUGAAACAUGAGGAUCACCCAUGUCCUCAUAUGCUCGUCUUAU [salish99_TOv2_r3_053] (puzzle: Sensor v3, turn-off variant 2) , is the recorded apparent KD of MS2 coat protein at or above 90 nM?
a: condition met

q: Determine whether this sequence has apparent KD of MS2 coat protein no lower than 90 nM: AAUACAAGCGAGAUCCUAAACAUGAGGAUCACCCAUGUGCUCGUCUUAUAAAGUACUAUCACGAAAGUGAUAGUACA [Sensor 3, v1 - 67] (puzzle: Sensor v3, turn-off variant 1)
a: condition not met

q: In plain terms: is recorded apparent KD of MS2 coat protein at least 90 nM for UGUACUAUGCGAGCUGACUUGCGUAGUGCAGCAGGUGUUACAUGAGGAUCACCCAUGUCCUCAUUUGCUCGUCUUAU [SL-sv3-2.04 JL mod] (puzzle: Sensor v3, turn-off variant 2) ?
a: condition met

q: Dear colleague, could you confirm whether AGUAACUAUCACGAAAGUGAUAGUUACACAAGCAGUGGAACAUGAGGAUCACCCAUGUCCUCAUUUGCUCGUCUUAU [Sensor 3 - 27] (puzzle: Sensor v3, turn-off variant 2) has apparent KD of MS2 coat protein at or above 90 nM?
a: condition not met

q: Tell me whether apparent KD of MS2 coat protein is at least 90 nM here: AGAAGACAUGAGGAUCACCCAUGUAAGGAUAUCGAAGGUAAGAGAGGAAAGAAGGGAACGAGAAGGUACAGGUG [JR_Exclu1_Sub096] (puzzle: Exclusion 1)
a: condition met

q: Is apparent KD of MS2 coat protein for GAUUAUGCGAGCUUUAGGGACAUGAGGAUCACCCAUGUUCGUCUUAUUGGUCUGGAUGCACUAACAUACCUAAAUCU [JMF 28] (puzzle: Sensor v3, turn-off variant 1) at or above 90 nM?
a: condition not met

q: Hello, I need to know if GAUUGACAUGAGGAUCACCCAUGUGAGGAUAUCGGCCGGACCGUGUUGGCUUCCGUCGCGAGAAGGCGCAUAGG [Exclusion 1 V39] (puzzle: Exclusion 1) has measured apparent KD of MS2 coat protein not below 90 nM. Thanks!
a: condition met

q: Please check the record CCGAGGUAGCGGUCCUAUGACAUGAGGAUCACCCAUGUACCUCGCUACGAGCUUUUUGCUCAUCUUAUAAUUCUCGG [Atriat] (puzzle: Sensor v3, turn-off variant 1) and state if its apparent KD of MS2 coat protein is at or above 90 nM.
a: condition not met

q: Please tell me: is the sequence CUGGUCCGAGGAUAUAUUAAGUGAUACAUGAGGAUCACCCAUGUAAUUUAAUGGAAAUAAAUAGAAGGCGGACUAG [Mat - Exclusion 5 - JL mod - D51] (puzzle: Exclusion 5) at or over 90 nM in terms of apparent KD of MS2 coat protein?
a: condition not met

q: Hi, just wondering whether AAAUGCAGGUAAAGAUUCUACAUGAGGAUCACCCAUGUGCUCGUCUUAUAAAGUACUAUCACGAAAGUGAUAGUACA [Sensor 3, v1 - 41] (puzzle: Sensor v3, turn-off variant 1) shows apparent KD of MS2 coat protein of 90 nM or higher.
a: condition not met

q: Reported apparent KD of MS2 coat protein at or above 90 nM? AGUAACCGUCACGAAAGUGAUGGUUACACAAGUAAAUGUACAUGAGGAUCACCCAUGUCCUCAUUUGCUCGUCUUAU [Sensor 3 - 46] (puzzle: Sensor v3, turn-off variant 2)
a: condition met

q: Hi team, for GCAUUGAGUGUGAGGAUAUGCUGGUCCUAAGAUCAGCAGAAGGCACAUGAGGAUCACCCAUGUGAAAACAAUGC [Mat - Exclusion 4 - JL Mod - D65] (puzzle: Brourd's mod of Exclusion 4) , is the recorded apparent KD of MS2 coat protein at or above 90 nM?
a: condition not met

q: Check this sequence for apparent KD of MS2 coat protein at or above 90 nM: UCGUGGUAACUCAGCAGUUUCCUGAGCGGAGGAACUUUGACAUGAGGAUCACCCAUGUUGCUUUUUGCUCAUCUUAA [JR_SV3TOV2_Sub042] (puzzle: Sensor v3, turn-off variant 2)
a: condition not met

q: Can GAUUAUGCGAGCUUUAGGGACAUGAGGAUCACCCAUGUUCGUCUUGUUGAUCUAGGUACGCUGACAUACCUAAAUCU [JMF 99] (puzzle: Sensor v3, turn-off variant 1) be said to have apparent KD of MS2 coat protein at or above 90 nM?
a: condition not met

q: State whether the measured apparent KD of MS2 coat protein reaches 90 nM, counting equality as reaching it, for GGUCUGCGAGGAUAUACAUGAGGAUCACCCAUGUGCGAGUUACUUGUGAGGUCGGUUGGUAGAAGGCGCGGACG [JL-ex3-2.10 salish99 mod] (puzzle: Exclusion 3)
a: condition not met

q: Is the recorded value of apparent KD of MS2 coat protein equal to or greater than 90 nM for this sequence? AUACGUCAAGUCAGGAUAUAUACCGCGACUACGGCGUAGAAGGGACAUGAGGAUCACCCAUGUAAAAGGGCAAA [Ceerrilaza] (puzzle: Brourd's mod of Exclusion 4)
a: condition not met
